Data origin: patent US9828379B2

inhibition at 1 µM listing for selected compounds.
- Tgt: MAGL (Mus musculus, UniProt O35678)
- Sequence (O35678 whole entry): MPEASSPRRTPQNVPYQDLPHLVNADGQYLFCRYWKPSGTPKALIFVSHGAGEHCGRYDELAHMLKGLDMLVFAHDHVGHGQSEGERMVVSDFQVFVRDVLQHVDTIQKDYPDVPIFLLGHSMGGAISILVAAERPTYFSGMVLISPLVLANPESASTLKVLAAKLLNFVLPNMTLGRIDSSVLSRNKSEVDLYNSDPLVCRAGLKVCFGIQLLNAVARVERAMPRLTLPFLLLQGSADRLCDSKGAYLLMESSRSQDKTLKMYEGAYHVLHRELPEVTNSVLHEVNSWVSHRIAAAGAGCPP
- Method Description: In vitro competitive activity-based protein profiling (Table 2, % inhibition at 1 μM)
- Type: biochemical
- Recorded Conditions: read-out: % Inhibition at 1 μM MAGL

// below: answered compounds
compound="CC1COCCN1c1cc(Cl)ccc1CN1CC2CN(C(=O)ON3C(=O)CCC3=O)CC2C1 (stereo not drawn) [Example 95]" result="25 to 75%"
compound="CC(=O)N1CC2(CCN(c3ccccc3CN3CC4CN(C(=O)OC(C(F)(F)F)C(F)(F)F)CC4C3)C2)C1 (stereo not drawn) [Example 137]" result="> 75%"
compound="CCn1cc(CN2CC3CN(C(=O)OC(C(F)(F)F)C(F)(F)F)CC3C2)c(-c2cccc(N3CCC3)c2)n1 (stereo not drawn) [Example 66]" result="> 75%"

**Query** Look up inhibition at 1 µM for this compound: CC1COCCN1c1ccc(CN2CC3CN(C(=O)ON4C(=O)CCC4=O)CC3C2)c(F)c1 (stereo not drawn) [Example 100]
**Result** 25 to 75%

**Query** Also need O=C(ON1C(=O)CCC1=O)N1CC2CN(Cc3cccc(Cl)c3N3CCC(F)CC3)CC2C1 (stereo not drawn) [Example 160] , thanks.
**Result** > 75%

**Query** Also CCn1cc(CN2CC3CN(C(=O)OC(C(F)(F)F)C(F)(F)F)CC3C2)c(C(=O)N2CCOCC2)n1 (stereo not drawn) [Example 76] ?
**Result** 25 to 75%

**Query** Subsequent entry: CCn1cc(CN2CC3CN(C(=O)OC(C(F)(F)F)C(F)(F)F)CC3C2)c(-c2ccccc2N2CCCCC2)n1 (stereo not drawn) [Example 130]
**Result** > 75%

**Query** Can you handle CCn1cc(CN2CC3CN(C(=O)OC(C(F)(F)F)C(F)(F)F)CC3C2)c(C(=O)NC2CC2)n1 (stereo not drawn) [Example 77] next?
**Result** > 75%

---

- Tgt: FAAH (Mus musculus)
- Method Description: In vitro competitive activity-based protein profiling (Table 2, % inhibition at 1 μM)
- Type: biochemical
- Recorded Conditions: read-out: % Inhibition at 1 μM FAAH
inhibition at 1 µM for assorted compounds

Recorded results for 8 compounds are shown here.
compound="CC(C)(C)c1cc(CN2CC3CN(C(=O)OC(C(F)(F)F)C(F)(F)F)CC3C2)n(C2CCOCC2)n1 (stereo not drawn) [Example 157]" result="< 25%"
compound="O=C(OC(C(F)(F)F)C(F)(F)F)N1CC2CN(Cc3cccc(N4CCOCC4)c3Cl)CC2C1 (stereo not drawn) [Example 49]" result="25 to 75%"
compound="O=C(OC(C(F)(F)F)C(F)(F)F)N1CC2CN(Cc3ccc(F)cc3N3CCCC3)CC2C1 (stereo not drawn) [Example 15]" result="25 to 75%"
compound="CCn1cc(CN2CC3CN(C(=O)OC(C(F)(F)F)C(F)(F)F)CC3C2)c(C(=O)N2CCOCC2)n1 (stereo not drawn) [Example 76]" result="< 25%"
compound="CCn1cc(CN2CC3CN(C(=O)OC(C(F)(F)F)C(F)(F)F)CC3C2)c(-c2ccc(N3CCOCC3)cc2)n1 (stereo not drawn) [Example 68]" result="< 25%"
compound="Cn1cc(CN2CC3CN(C(=O)OC(C(F)(F)F)C(F)(F)F)CC3C2)c(C2CCN(S(C)(=O)=O)CC2)n1 (stereo not drawn) [Example 56]" result="< 25%"
compound="CC(=O)N1CCN(c2cc(Cl)ccc2CN2CC3CN(C(=O)OC(C(F)(F)F)C(F)(F)F)CC3C2)CC1 (stereo not drawn) [Example 21]" result="25 to 75%"
compound="CCn1cc(CN2CC3CN(C(=O)OC(C(F)(F)F)C(F)(F)F)CC3C2)c(-c2cccc(N3CCOCC3)c2)n1 (stereo not drawn) [Example 65]" result="< 25%"

--- query ---
**Query** So what's the measured inhibition at 1 µM for this one? Cn1nc(-c2cccc(F)c2)cc1CN1CC2CN(C(=O)ON3C(=O)CCC3=O)CC2C1 (stereo not drawn) [Example 198]
**Result** < 25%

---

We begin with a simple list: items and their reported IC50.
- Tgt: UniProt:O08914
- Sequence (O08914 1-579): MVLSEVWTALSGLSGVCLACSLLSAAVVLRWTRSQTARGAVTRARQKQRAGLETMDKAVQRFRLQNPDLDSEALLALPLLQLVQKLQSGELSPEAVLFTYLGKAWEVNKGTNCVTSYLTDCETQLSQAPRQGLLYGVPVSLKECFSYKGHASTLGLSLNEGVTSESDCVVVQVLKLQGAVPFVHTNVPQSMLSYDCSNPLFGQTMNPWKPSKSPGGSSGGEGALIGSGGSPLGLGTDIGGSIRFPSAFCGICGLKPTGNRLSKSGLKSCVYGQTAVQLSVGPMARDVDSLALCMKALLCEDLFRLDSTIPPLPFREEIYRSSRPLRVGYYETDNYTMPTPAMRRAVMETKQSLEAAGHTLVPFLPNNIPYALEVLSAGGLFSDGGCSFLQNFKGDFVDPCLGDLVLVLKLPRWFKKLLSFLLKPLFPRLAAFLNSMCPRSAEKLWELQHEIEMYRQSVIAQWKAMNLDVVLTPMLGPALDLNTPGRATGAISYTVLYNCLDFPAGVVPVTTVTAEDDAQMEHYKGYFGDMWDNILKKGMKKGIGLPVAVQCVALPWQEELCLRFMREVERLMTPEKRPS
- Method Description: biochemical
- Recorded Conditions: in vitro competitive ABPP

compound="CC(C)n1cc(CN2CC3CN(C(=O)OC(C(F)(F)F)C(F)(F)F)CC3C2)c(-c2ccccc2)n1 (stereo not drawn)" tgt=UniProt:O08914 property=IC50 result="1000 to 10000 nM"
compound="O=C(OC(C(F)(F)F)C(F)(F)F)N1CC2CN(Cc3ccc(Cl)cc3N3CCn4ncnc4C3)CC2C1 (stereo not drawn)" tgt=UniProt:O08914 property=IC50 result="1000 to 10000 nM"
compound="O=C(OC(C(F)(F)F)C(F)(F)F)N1CC2CN(Cc3ccc(F)cc3N3CCCC3)CC2C1 (stereo not drawn)" tgt=UniProt:O08914 property=IC50 result="1000 to 10000 nM"

**Query** Could you tell me which IC50 is on file for Cn1nc(-c2cccc(F)c2)cc1CN1CC2CN(C(=O)OC(C(F)(F)F)C(F)(F)F)CC2C1 (stereo not drawn) ?
**Result** 1000 to 10000 nM

**Query** Let us now turn to CN1CCN(c2c(Cl)cccc2CN2CC3CN(C(=O)OC(C(F)(F)F)C(F)(F)F)CC3C2)CC1 (stereo not drawn)
**Result** > 10000 nM

---

- Tgt: MAGL (Mus musculus, UniProt O35678)
- Method Description: biochemical
- Recorded Conditions: mouse; in vitro competitive ABPP; read-out: Mouse (IC50 value, nM) MAGL
We begin with a simple list: items and their reported IC50.

molecule="O=C(OC(C(F)(F)F)C(F)(F)F)N1CC2CN(Cc3ccc(Cl)cc3N3CC4CCC(C3)O4)CC2C1 (stereo not shown)" tgt="MAGL (Mus musculus, UniProt O35678)" result="< 100 nM"
molecule="CC(C)n1cc(CN2CC3CN(C(=O)OC(C(F)(F)F)C(F)(F)F)CC3C2)c(-c2cccc(Cl)c2)n1 (stereo not shown)" tgt="MAGL (Mus musculus, UniProt O35678)" result="< 100 nM"
molecule="CCn1ncc(CN2CC3CN(C(=O)OC(C(F)(F)F)C(F)(F)F)CC3C2)c1C(=O)NCC1CC1 (stereo not shown)" tgt="MAGL (Mus musculus, UniProt O35678)" result="< 100 nM"
molecule="CC(=O)NC1CCN(c2ccc(Cl)cc2CN2CC3CN(C(=O)OC(C(F)(F)F)C(F)(F)F)CC3C2)CC1 (stereo not shown)" tgt="MAGL (Mus musculus, UniProt O35678)" result="100 to 1000 nM"
molecule="O=C(OC(C(F)(F)F)C(F)(F)F)N1CC2CN(Cc3cccc(-c4ccccc4)c3)CC2C1 (stereo not shown)" tgt="MAGL (Mus musculus, UniProt O35678)" result="< 100 nM"
molecule="O=C(OC(C(F)(F)F)C(F)(F)F)N1CC2CN(Cc3ccc(N4CCOCC4)cc3OC(F)(F)F)CC2C1 (stereo not shown)" tgt="MAGL (Mus musculus, UniProt O35678)" result="< 100 nM"

Then this molecule:
**Query** Which IC50 is listed for O=C(ON1C(=O)CCC1=O)N1CC2CN(Cc3ccc(Cl)cc3N3CCOC4CCCC43)CC2C1 (stereo not shown) ?
**Result** 100 to 1000 nM

---

IC50 for assorted compounds
- Tgt: MAGL (Mus musculus)
- Method Description: biochemical
- Recorded Conditions: mouse; in vitro competitive ABPP; read-out: Mouse (IC50 value, nM) MAGL

Please review the entries below; each comes with its answer.
compound="O=C(OC(C(F)(F)F)C(F)(F)F)N1CC2CN(Cc3cccc(Cl)c3N3CCC(F)(F)CC3)CC2C1 (stereo not shown)" tgt="MAGL (Mus musculus)" property=IC50 result="100 to 1000 nM"
compound="CCn1cc(CN2CC3CN(C(=O)OC(C(F)(F)F)C(F)(F)F)CC3C2)c(-c2ccccc2N2CCC2)n1 (stereo not shown)" tgt="MAGL (Mus musculus)" property=IC50 result="< 100 nM"

Consider the record given below.
**Query** Any idea what its IC50 is? The compound is O=C(OC(C(F)(F)F)C(F)(F)F)N1CC2CN(Cc3ccc(Cl)cc3N3CCCC3)CC2C1 (stereo not shown)
**Result** < 100 nM
